Experiment description: Bioavailability test in vivo in mice (pharmacokinetics, iv and intragastric)
Design: species or system ICR mice
Test context: ICR, mouse, plasma, iv, 3 mg/kg
Readout: MRT (h)

> print(dat)
                                   compound  quantity.unit  obs.value
1  C=CCn1c(=O)c2cnc(Nc3ccc4c(c3)CCC(N(C)C)C4)nc2n1-c1cccc(C(C)(C)O)n1 (centres unmarked) [Control 2, reference compound]              h       0.86
2  C=CCn1c(=O)c2cnc(Nc3ccc(C4CCC(N(C)C)CC4)cc3)nc2n1-c1cccc(C(C)(C)O)n1 (single isomer, unassigned)              h       1.75
3  C=CCn1c(=O)c2cnc(Nc3ccc(C4CCC(N5CCC5)CC4)cc3)nc2n1-c1cccc(C(C)(C)O)n1 (centres unmarked) [Compound I-8]              h       1.11

[a] C=CCn1c(=O)c2cnc(Nc3ccc(C4CCC(N5CCC5)CC4)cc3)nc2n1-c1cccc(C(C)(C)O)n1 (single isomer, unassigned) [Compound I-8-1]
[b] C=CCn1c(=O)c2cnc(Nc3ccc(N4CCN(C)CC4)cc3)nc2n1-c1cccc(C(C)(C)O)n1 [Control 1, reference compound]
[ask] a or b : whose MRT is greater? Answer format: the label of the selected item.
[reply] a
(a: 1.11 h, b: 0.42 h)
